- target system: T1, UbcH5B S22R C85K–Ub (UniProt P62837 1-147; P0CG47 1-76, S22R | C85K, conjugated to Ub via an isopeptide bond (non-hydrolyzable amide linkage) | conjugated to UbcH5B via an isopeptide bond)
- T1 construct: E2 ubiquitin-conjugating enzyme UbcH5B; ubiquitin (Ub); also called UbcH5B–Ub; E2–Ub; source: expressed, generated and purified as described previously [7]
- experiment description: SPR; GST-Cbl variants coupled to CM-5 chips; UbcH5B–Ub as analyte at 0–120 μM; Biacore T200
- condition set: both partners purified
readout kind: Kd (µM)
Kindly provide the numeric value in µM only, without the unit symbol.

Reported Kd for His-GST-N-Cbl Y371C (residues 47-435) (domain or fragment, UniProt P22681 47-435, looked up, Cbl (c-Cbl), N-terminal fragment with TKBD, linker helix region and RING domain (N-Cbl), residues 47-435; mutation identified in MDS/MPN clinical samples; Tag not cleaved for SPR; not shown: His, N-terminal, kept; GST, N-terminal, kept) PPGTVDKKMVEKCWKLMDKVVRLCQNPKLALKNSPPYILDLLPDTYQHLRTILSRYEGKMETLGENEYFRVFMENLMKKTKQTISLFKEGKERMYEENSQPRRNLTKLSLIFSHMLAELKGIFPSGLFQGDTFRITKADAAEFWRKAFGEKTIVPWKSFRQALHEVHPISSGLEAMALKSTIDLTCNDYISVFEFDIFTRLFQPWSSLLRNWNSLAVTHPGYMAFLTYDEVKARLQKFIHKPGSYIFRLSCTRLGQWAIGYVTADGNILQTIPHNKPLFQALIDGFREGFYLFPDGRNQNPDLTGLCEPTPQDHIKVTQEQYELCCEMGSTFQLCKICAENDKDVKIEPCGHLMCTSCLTSWQESEGQGCPFCRCEIKGTEPIVVDPFD was 36
